From: PubChem BioAssay AID256

- Test system: CD2F1 mice, L1210 leukemia ip, survival T/C
- TEST METHOD NOTES: NCI In Vivo Anticancer Drug Screen. Data for tumor model L1210 Leukemia (intraperitoneal) in CD2F1 (CDF1) mice
- TEST CONDITIONS: endpoint: mean survival time; dose: 12.5 mg/kg/injection; schedule: Q01DX009 (ip); vehicle: saline
Toxic doses and inconclusive results are not listed. The calls were made as follows: active = survival T/C of 150% or more; inactive = T/C below 125% in these data.
Possible outcomes: active, inactive

{"columns": ["COMPOUND", "CLASSIFICATION"],
 "data": [
  ["C1CN2CN3CCN(CN1C3)C2", "inactive"],
  ["CCCC(=O)Nc1ncnc2c1ncn2C1OC2COP(=O)(O)OC2C1OC(=O)CCC (centres undefined)", "inactive"],
  ["C=C(CC(=O)OC)C(=O)O", "inactive"],
  ["Cc1ncc(CNC(=O)N(CCCl)N=O)c(N)n1", "active"]
]}

====

Item-by-item account of T/C
- Test system: CD2F1 mice, L1210 leukemia ip, survival T/C
- TEST METHOD NOTES: NCI In Vivo Anticancer Drug Screen. Data for tumor model L1210 Leukemia (intraperitoneal) in CD2F1 (CDF1) mice
- TEST CONDITIONS: endpoint: mean survival time; dose: 100.0 mg/kg/injection; schedule: Q04DX002 (ip); vehicle: saline with Tween-80; higher = longer survival
Inconclusive results and toxic doses are left out.
QUANTITY MEASURED: T/C

{"columns": ["MOLECULE", "RESULT"],
 "data": [
  ["COc1cc(-c2ccc(N)c(OC)c2)ccc1N", "102 % of control"],
  ["CCOc1ccc(OCC)c(NC(=O)Nc2cccc(Cl)c2)c1", "88 % of control"],
  ["O=C1OC(/C=C/c2ccccc2)=NC/1=C\\c1ccccc1Cl", "103 % of control"],
  ["O=C(OCC(OC(=O)c1ccccc1)C(OC(=O)c1ccccc1)C(O)C(O)CO)c1ccccc1 (stereo not given) (tested in a mixture with another compound)", "114 % of control"],
  ["CCOP1(=S)Nc2cc(C)c(C)cc2N1", "87 % of control"],
  ["CN(C)C(=S)Oc1c([N+](=O)[O-])cc([N+](=O)[O-])cc1C(C)(C)C", "91 % of control"],
  ["O=C(NN(C(=O)c1ccccc1)c1ccccc1)c1ccccc1", "100 % of control"],
  ["CC1CN(C2(c3ccccc3)CCCCC2)CCC12OCCO2 (stereo not given)", "93 % of control"],
  ["FC(F)(F)c1ccc(Cl)c(N=C=S)c1", "104 % of control"],
  ["CC(C)C1=CCC(OC(=O)N=C=Nc2ccccc2)CC1 (stereo not given)", "90 % of control"],
  ["CC(=O)OC1CCC2(C)C(CCC3C2CCC2(C)C3CC3OC(CCC(C)O)C(C)C32)C1 (stereo not given)", "86 % of control"],
  ["CC(C)(O)C1CC2C=CC1C2 (stereo not given)", "98 % of control"],
  ["CCCCCCCCOc1ccc(Cl)cc1", "90 % of control"],
  ["O=C(/C=C/c1ccccc1)c1cccc([N+](=O)[O-])c1", "91 % of control"],
  ["OCCSc1c(Cl)c(Cl)c(Cl)c(Cl)c1Cl", "115 % of control"],
  ["CCCCCCCC/C=C\\CCCCCCCC(=O)OCCCCC", "87 % of control"],
  ["CCCCCCCCOc1ccc(Cl)cc1Cl", "96 % of control"],
  ["CN1C(=O)C(C(O)(c2ccccc2)c2ccccc2)C1c1ccccc1 (stereo not given)", "96 % of control"],
  ["CNC(=S)N(C)c1nc(C)cs1", "91 % of control"],
  ["CCOc1ccc(OCC)c(NC(=O)Nc2ccccc2OC)c1", "96 % of control"],
  ["O=C1OC(=O)C2C(c3ccccc3)=C3C(=C(c4ccccc4)C12)c1cccc2cccc3c12 (stereo not given)", "94 % of control"],
  ["S=C1NC=CC(S)N1 (stereo not given)", "103 % of control"],
  ["O=C(O)C1CCc2c(cnn2-c2ccccc2)C1 (stereo not given)", "88 % of control"],
  ["CC1CCC2(OC1)OC1CC3C4CCC5(C)CC(=O)CCC5(C)C4CCC3(C)C1C2C (stereo not given)", "90 % of control"],
  ["NC(=O)COc1ccc(F)cc1", "97 % of control"],
  ["C=C1C2C(c3ccccc3)=CC(C1(C)C(Cl)Cl)C(C#N)(C#N)C2(C#N)C#N (stereo not given)", "108 % of control"],
  ["Cc1cc(C)c(NC(=O)CC#N)cc1C", "90 % of control"],
  ["CCOc1ccc(/C=C2N=C(/C=C/c3ccccc3)OC\\2=O)cc1", "91 % of control"],
  ["O=C(OC1(c2ccccc2)C2C=CC1CC2)c1ccc([N+](=O)[O-])cc1 (stereo not given)", "98 % of control"],
  ["CCOC(=O)C(O)C(C)(Cl)c1ccccc1 (stereo not given)", "95 % of control"],
  ["Cc1cccc(Cl)c1NC(=O)/C=C/c1ccccc1", "87 % of control"],
  ["CCC(CCc1ccc(OC)c(OC)c1)C(=O)O (stereo not given)", "109 % of control"],
  ["COc1ccc(NC(C)=O)c(O)c1OC", "103 % of control"],
  ["Nc1ncnc2c1nc(Br)n2C1OC(CO)C(O)C1O (stereo not given)", "95 % of control"],
  ["Cc1cc(S(=O)(=O)F)cc(Cl)c1SC(=O)N(C)C", "91 % of control"],
  ["CC(=O)N1NC2C(=O)N(C3CCCCC3)CC2C1c1ccc(N(C)C)cc1 (stereo not given)", "103 % of control"],
  ["C=CCC1(CO)CCCCC1O (stereo not given)", "96 % of control"],
  ["O=C(Cn1ccc(=O)[nH]c1=O)c1cc2ccccc2[nH]1", "93 % of control"],
  ["CC(=O)CC(=O)C(C)(C)C(C)=O", "117 % of control"],
  ["NNC(=O)Nc1nn[nH]n1", "97 % of control"]
]}

====

Item-by-item account of T/C
- System: CD2F1 mice, L1210 leukemia ip, survival T/C
- TEST METHOD NOTES: NCI In Vivo Anticancer Drug Screen. Data for tumor model L1210 Leukemia (intraperitoneal) in CD2F1 (CDF1) mice
- TEST CONDITIONS: endpoint: mean survival time; dose: 100.0 mg/kg/injection; schedule: Q04DX003 (ip); vehicle: saline with Tween-80; higher = longer survival
Inconclusive results and toxic doses are left out.
QUANTITY MEASURED: T/C

{"columns": ["MOLECULE", "RESULT"],
 "data": [
  ["CCc1ccc(C(C)(C)C)cc1", "99 % of control"],
  ["COc1ccccc1NC(C)=O", "101 % of control"],
  ["CCOC(=O)N1CCc2cc(OC)c(OC)cc2C1=C(c1ccccc1)c1ccccc1", "86 % of control"],
  ["OCc1c(Cl)cccc1Cl", "103 % of control"],
  ["N#CCc1ccc(Cl)c(Cl)c1", "102 % of control"],
  ["CSC(=S)N/N=C(\\C)c1ccccn1", "110 % of control"],
  ["CS(=O)(=O)OC(OS(C)(=O)=O)(OS(C)(=O)=O)OS(C)(=O)=O", "111 % of control"],
  ["CCO/C=N/NC(=O)CNC(=O)C=[N+]=[N-]", "108 % of control"],
  ["CCOC(=O)/C(C)=C/C(O)CO (stereo not drawn)", "105 % of control"],
  ["N#CCC(=O)OCCCCOC(=O)CC#N", "103 % of control"],
  ["C/C=C(/C(=O)OC)c1ccc([N+](=O)[O-])cc1", "92 % of control"],
  ["CCCCCCCCCCCCCCCC(=O)N1CCC(N2CCCCC2)CC1", "92 % of control"],
  ["CCOC(=O)COC(CN)C(Cl)(Cl)Cl (stereo not drawn)", "101 % of control"]
]}

====

- Test system: CD2F1 mice, L1210 leukemia ip, survival T/C
- TEST METHOD NOTES: NCI In Vivo Anticancer Drug Screen. Data for tumor model L1210 Leukemia (intraperitoneal) in CD2F1 (CDF1) mice
- TEST CONDITIONS: endpoint: mean survival time; dose: 50.0 mg/kg/injection; schedule: Q01DX009 (ip); vehicle: water; higher = longer survival
Inconclusive results and toxic doses are left out.
Item-by-item account of T/C
QUANTITY MEASURED: T/C

{"columns": ["COMPOUND", "MEASURED TARGET", "RESULT"],
 "data": [
  ["COC(=O)/C=C/CNC(C)C", "CD2F1 mice, L1210 leukemia ip, survival T/C", "96 % of control"],
  ["CCOC(=O)C(C)Oc1ccc(Cl)cc1 (configuration not stated)", "CD2F1 mice, L1210 leukemia ip, survival T/C", "106 % of control"],
  ["COCC(O)Cn1ccnc1[N+](=O)[O-] (configuration not stated)", "CD2F1 mice, L1210 leukemia ip, survival T/C", "103 % of control"],
  ["COc1cc2c(cc1OC)C(C#N)N(C(=O)c1ccccc1)C=C2 (configuration not stated)", "CD2F1 mice, L1210 leukemia ip, survival T/C", "100 % of control"],
  ["Nc1nc2c(ncn2C2OC(CO)C(O)C2O)c(=O)[nH]1.Nc1nc2c(ncn2C2OC(CO)C(O)C2O)c(=O)[nH]1.[NH2-].[NH2-].[Pt+2] (configuration not stated)", "CD2F1 mice, L1210 leukemia ip, survival T/C", "113 % of control"],
  ["COC1CC(N)C(O)C(C)O1 (configuration not stated)", "CD2F1 mice, L1210 leukemia ip, survival T/C", "107 % of control"],
  ["O=C(c1ccc(-c2ccccc2)cc1)C(Br)C(Br)c1ccccc1 (configuration not stated)", "CD2F1 mice, L1210 leukemia ip, survival T/C", "90 % of control"]
]}
